Molecular target: HLA-B*3501 (human), P01889
Experiment: competition, FACS 4C
Conditions: modification not given
observable: IC50 (nM)
Field: numeric (nM). Do not append units.

[in] For LPTLAKFSPY [PRAME 246-255] , what is its reported IC50?
[out] 110
